Biological target: T1, cynomolgus EREG (Biacore analyte) (cynomolgus monkey, UniProt O14944 63-108 (human entry), limits assumed)
T1 construct: also called cynomolgus monkey EREG; cEREG
T1 sequence (O14944 other isoform, or with tags, fused parts or gaps limits assumed): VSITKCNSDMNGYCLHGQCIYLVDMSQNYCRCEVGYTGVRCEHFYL
Assay: SPR (Biacore T100); KD for monkey EREG over KD for human EREG
Value Kind: cEREG (nM)/hEREG (nM) (ratio)

H87-G1d/LB-k (antibody, human IgG1, kappa, V domains shown) VH: QDQLVQSGAEVKKPGASVKVSCKASGFNIKDTYIQWVRQAPGQGLEWMGRIDPLTGQTKYQEKFEGRVTITADTSTNTAYMELSSLRSEDTAVYYCVRSGTSFDFWGQGTLVTVSS VL: DIQMTQSPSSLSASVGDRVTITCKASQDIHKYIAWYQQKPGQAPRLLIQYTSTLQPGVPSRFSGSGSGTDYTFTISSLQPEDIATYYCLQYDNLRTFGGGTKVEIKR	35.1
H206-G1d/L53-k (antibody, human IgG1, kappa, V domains shown) VH: QDQLVQSGAEVKNPGASVKVSCKASGFNIKDTYIQWVRQAPGQGLEWMGRIDPLRRQTKYREKFEGRVTITADTSTNTAYMELSSLRSEDTAVYYCVRSGREFDFWGQGTLVTVSS VL: DIQMTQSPSSLSASVGDRVTITCRASQDIHKYIAWYQQKPGQAPRLLIQYTSTLQPGVPSRFSGSGSGTDYTFTISSLQPEDIATYYCLQYDNLRTFGGGTKVEIKR	5.2
